# Tested on: A498
# assay.summary: NCI tumour cell line growth inhibition, 48 h
Calls of active or inactive are those of the source. No stated cut-off is given here; in the data, active = GI50 up to about 1.1 µM and inactive = higher.
The entries below are paired with their reported GI50.

Some compounds with known GI50 results, for comparison:
compound=CC1(C)[C@@H]2C[C@H]1[C@@H](Cc1cccc(C[C@H]3c4cc(-c5ccccn5)ncc4[C@H]4C[C@@H]3C4(C)C)c1)c1cc(-c3ccccn3)ncc12 reported_endpoint=GI50 val="> 44.4 µM (inactive)"
compound=Nc1c(-c2cn(Cc3ccccc3)c3ccccc23)[n+]([O-])c2ccccc2[n+]1[O-] reported_endpoint=GI50 val="18.4 µM (inactive)"
compound=O=C(c1ccccc1)c1ccc2[nH]c(-c3c(Cl)c(Cl)c(Cl)c(Cl)c3C(=O)Nc3ccco3)nc2c1 reported_endpoint=GI50 val="20 µM (inactive)"

Let's switch to this compound now.
GI50 for COc1cc(C(=O)OCCn2[nH]c(-c3ccc(Cl)cc3)nc2=S)cc(OC)c1OC is > 100 µM (inactive)
